Give measured selectivity ratio for each item. Keep answers brief.
assay: Selectivity index, ratio of CC50 for human HepG2 cells in presence of 1% FBS to MIC for Escherichia coli N4149; type: toxicity; conditions: read-out: Selectivity Index
// no unit, no text: just the number

(Q) Would you mind telling me what selectivity ratio value was observed for "Fc1cccc2c1-c1ccccc1[I+]2" ?
(A) 4.2

(Q) # repeat for "Clc1cccc2c1-c1ccccc1[I+]2"
(A) 1.2

(Q) Next compound up: "c1ccc2c(c1)[I+]c1ccccc1-2"
(A) 0.78

(Q) Now give it for "Fc1ccc2c(c1)[I+]c1ccccc1-2" too.
(A) 0.08

(Q) Do the same for "N#Cc1ccc2c(c1)[I+]c1ccccc1-2" please
(A) 0.05

====

test system: Escherichia coli; assay: Antibacterial activity against Escherichia coli N4149 after 18 hrs by broth microdilution method; assay type: functional; conditions: N4149, 18 h
hey, just use YES if measured MIC is less than 40 µM, otherwise NO

(Q) API: query returns whether the compound falls strictly under 40 µM in MIC. Query: "Cc1ccc2c(c1)-c1ccccc1[I+]2"
(A) NO

(Q) Ok, now "COc1ccc2c(c1)-c1ccccc1[I+]2"
(A) NO

(Q) Please give the result for "Clc1ccc2c(c1)[I+]c1ccccc1-2" too.
(A) YES

(Q) Item: "c1ccc2c(c1)[I+]c1c-2ccc2ccccc12"
(A) YES

(Q) Input "Fc1ccc2c(c1)[I+]c1ccccc1-2"
(A) YES

(Q) What do you have for "Fc1cccc2c1-c1ccccc1[I+]2" ?
(A) YES

(Q) Cool, now "N#Cc1ccc2c(c1)-c1ccccc1[I+]2"
(A) NO

(Q) Try this compound too: "Cc1ccc2c(c1)[I+]c1ccccc1-2.O=S(=O)([O-])C(F)(F)F"
(A) NO

(Q) Next record, please: "COc1ccc2c(c1)[I+]c1ccccc1-2"
(A) NO

(Q) Param item: "COc1cccc2c1-c1ccccc1[I+]2"
(A) NO

(Q) Can you check "Fc1ccc2c(c1)-c1ccccc1[I+]2" next?
(A) YES

(Q) "Clc1cccc2c1-c1ccccc1[I+]2" ?
(A) YES

(Q) Again, but for "Clc1ccc2c(c1)-c1ccccc1[I+]2"
(A) YES

(Q) Do the same for "N#Cc1ccc2c(c1)[I+]c1ccccc1-2" please
(A) NO

(Q) Moving on to "Cc1cccc2c1-c1ccccc1[I+]2"
(A) NO

(Q) # iterate: "c1ccc2c(c1)[I+]c1ccccc1-2"
(A) YES

====

tested on: Klebsiella pneumoniae; test: Antibacterial activity against Klebsiella pneumoniae ATCC 13883 after 18 hrs by broth microdilution method; type: functional; settings: ATCC 13883, 18 h
Output: class label from MIC. Mapping: low bracket: < 9 µM; middle bracket: ≥ 9 µM and < 40 µM; high bracket: ≥ 40 µM

(Q) The entry to classify is "c1ccc2c(c1)[I+]c1c-2ccc2ccccc12" ; which class holds it?
(A) low bracket

(Q) How about this compound: "COc1cccc2c1-c1ccccc1[I+]2"
(A) high bracket

(Q) Another compound to look at: "Cc1ccc2c(c1)-c1ccccc1[I+]2"
(A) high bracket

(Q) Now this one: "COc1ccc2c(c1)-c1ccccc1[I+]2"
(A) high bracket

(Q) Now this one: "N#Cc1ccc2c(c1)-c1ccccc1[I+]2"
(A) middle bracket

(Q) Cool, now "N#Cc1ccc2c(c1)[I+]c1ccccc1-2"
(A) middle bracket

(Q) Next record, please: "Fc1ccc2c(c1)-c1ccccc1[I+]2"
(A) middle bracket

(Q) Next up: "Clc1cccc2c1-c1ccccc1[I+]2"
(A) low bracket

(Q) Item: "Cc1ccc2c(c1)[I+]c1ccccc1-2.O=S(=O)([O-])C(F)(F)F"
(A) high bracket

(Q) "Cc1cccc2c1-c1ccccc1[I+]2" , same question.
(A) middle bracket

(Q) For "Fc1cccc2c1-c1ccccc1[I+]2" then?
(A) low bracket

(Q) // same read-out, input: "COc1ccc2c(c1)[I+]c1ccccc1-2"
(A) high bracket

(Q) Again, but for "c1ccc2c(c1)[I+]c1ccccc1-2"
(A) middle bracket

(Q) Thanks! And "Clc1ccc2c(c1)-c1ccccc1[I+]2" ?
(A) low bracket

(Q) "Fc1ccc2c(c1)[I+]c1ccccc1-2" , same question.
(A) middle bracket

(Q) Do the same for "Clc1ccc2c(c1)[I+]c1ccccc1-2" please
(A) low bracket
